The measurements presented in this section are drawn from patent US7160903B2.

Reported melting point by item:

Reported melting point ( O=C(CC[C@H](NS(=O)(=O)c1ccc(-c2ccc(N3CCCC3)cc2)cc1)C(=O)O)Nc1ccccc1 [Example 80] ) = > 228 °C (dec.)

Further cases:
Short answer for O=C(CC[C@H](NS(=O)(=O)c1ccc(-c2ccccc2)cc1)C(=O)O)Nc1ccc(F)cc1 [Example 91] : melting point was > 258 °C (dec.)

Memo: O=C(O)C[C@H](NS(=O)(=O)c1ccc(-c2ccccc2)cc1)C(=O)O [Example 37] , reported melting point: 186.7 °C

Item: O=C(O)C(Cc1c[nH]c2ccc(F)cc12)NS(=O)(=O)c1ccc(-c2ccc(N3CCCC3)cc2)cc1 (racemic) [Example 78] | melting point: > 230 °C (dec.)
